For each entry below, report its composite z-score value.
Assay: binders of probe aHhip on microarray, primary screen, stem cell growth factor project, biochemical, small-molecule microarray, fluorescence 635/667 (AID 1087);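 further: score merges spot fluorescence at 667nm with spot signal to noise ratio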
Settings: higher = more signal
Just the number, please, no unit attached.

Ask | Look up composite z-score: [N-]=[N+]=NCc1ccccc1C[C@@]1(C(N)=O)N=C(c2ccc(OCCCO)cc2)O[C@@H]1c1ccccc1N=[N+]=[N-]
Reply | 0.0722

Ask | Thanks! And COC(=O)[C@]1(Cc2ccccc2N=[N+]=[N-])N=C(c2ccc(OCCCO)cc2)O[C@@H]1c1ccccc1CN=[N+]=[N-] ?
Reply | 0.176

Ask | Thanks! And COc1ccc([Si](C)(C)[C@@H]2[C@@H](CC(=O)N3Cc4ccccc4C[C@H]3CO)O[C@]3(C(=O)N(Cc4ccc(I)cc4)c4ccccc43)[C@H]2C)cc1 ?
Reply | -0.204

Ask | Thanks! And CC(C)c1ccc(NN2C(C(O)C3=C[C@H]4C[C@@H](C3)C4(C)C)C=CC3C(=O)N(c4ccccc4)C(=O)C32)cc1 (some centres not stated) ?
Reply | -0.302

Ask | Thanks! And CC1CC/C=C\[C@H]2OC34C=CCN(C(C)C)C(=O)[C@H]3N(C(C)CO)C(=O)[C@@H]4C2C(=O)O1 (some centres not stated) ?
Reply | -0.137

Ask | Thanks! And CCOC(=O)C=C1C[C@@H](c2cccc([N+](=O)[O-])c2)O[C@@H](c2cccc([N+](=O)[O-])c2)O1 ?
Reply | -0.226

Ask | Thanks! And C=CCNC(=O)[C@@H]1[C@H]2C(=O)O[C@H](c3ccccc3)[C@H](c3ccccc3)N2[C@H](c2ccc(O)cc2)[C@@]12C(=O)N(C(=O)OCCOC)c1ccc(C#CCC(C(=O)OC)C(=O)OC)cc12 ?
Reply | 0.0266

----------
System: wheat germ agglutinin (Triticum aestivum), Alexa647-labelled
Assay: wheat germ agglutinin binders on compound microarrays, profiling panel, artefact control for SMM control-protein annotation, biochemical, small-molecule microarray, 635/667 nm fluorescence (AID 1140);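 further: score merges 667 nm feature emission with signal to noise over triplicate slides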
Conditions: WGA-A647 binding, 635 nm fluorescence, higher = more signal
For each entry below, report its composite z-score value.

Ask | Look up composite z-score: O=C1OCCC/C=C\[C@H]2OC34C=CCN(Cc5ccccc5)C(=O)[C@H]3N(CCO)C(=O)[C@@H]4C12 (some centres not stated)
Reply | -0.889

Ask | Thanks! And COc1cccc(C)c1NC(=O)O[C@H]1[C@H](OC(=O)Nc2ccccc2-c2ccccc2)[C@@H](OC(=O)Nc2ccccc2-c2ccccc2)[C@@H](OC)O[C@@H]1CO ?
Reply | 0.55

Ask | Thanks! And CC(C)c1ccc(NN2C(C(O)C(C)c3ccccc3)C=CC3C(=O)N(c4ccccc4)C(=O)C32)cc1 (configuration not stated) ?
Reply | 1.19

Ask | Thanks! And CCCC1(C(=O)OC)C=C2C(=C(C(C)C)C(=O)C2C)CN1 (configuration not stated) ?
Reply | -0.116

Ask | Thanks! And Cc1ccc(S(=O)(=O)N2[C@@H](c3ccccc3)C(C(=O)O)=CC[C@H]2c2ccc(F)cc2)cc1 ?
Reply | 1.05

Ask | Thanks! And COCCOC(=O)N1C(=O)[C@@]2(c3cc(C#CCNC(N)=O)ccc31)[C@H](c1ccc(O)cc1)N1[C@H](c3ccccc3)[C@H](c3ccccc3)OC(=O)[C@H]1[C@@H]2C(=O)N1CCc2cc(OC)c(OC)cc2C1 ?
Reply | 0.815

Ask | Thanks! And C=CCC(OC(C)=O)[C@@H]1[C@@H](N(Cc2ccc(-c3ccccc3)cc2)C(=O)Cc2ccc(OC)cc2)c2cc(OCCCO)ccc2N1C(=O)Cc1ccc(OC)cc1 (some centres not stated) ?
Reply | 0.365

----------
Biological target: Left-right determination factor 2 (Homo sapiens) (UniProt O00292)
Sequence (O00292 whole entry, looked up): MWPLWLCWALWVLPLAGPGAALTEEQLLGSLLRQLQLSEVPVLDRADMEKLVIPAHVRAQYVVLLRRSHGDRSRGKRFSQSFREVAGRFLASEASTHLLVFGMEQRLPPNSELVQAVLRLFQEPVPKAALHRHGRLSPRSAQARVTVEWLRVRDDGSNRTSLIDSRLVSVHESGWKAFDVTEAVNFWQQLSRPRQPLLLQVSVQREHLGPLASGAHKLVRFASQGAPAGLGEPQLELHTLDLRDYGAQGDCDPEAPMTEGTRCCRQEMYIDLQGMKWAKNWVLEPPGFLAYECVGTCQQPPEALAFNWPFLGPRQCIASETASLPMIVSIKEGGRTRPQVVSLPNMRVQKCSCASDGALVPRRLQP
Assay: LEFTY2 binders on small-molecule microarrays, primary screen, biochemical, small-molecule microarray, 635 nm fluorescence scan (AID 1110)
Settings: LEFTY2 binding, higher = more signal
reportedProperty: composite z-score
Just the number, please, no unit attached.

Ask | Look up composite z-score: [N-]=[N+]=NCc1ccccc1[C@H]1OC(c2ccc(OCCCO)cc2)=N[C@@]1(Cc1ccccc1N=[N+]=[N-])C(=O)N1CCOCC1
Reply | -0.267

Ask | Thanks! And COC(=O)[C@@]1(Cc2ccccc2)[C@H]2c3cc(C(=O)N(C)C)n(Cc4ccc(Cl)c(C(F)(F)F)c4)c3C[C@H]2CN1C(=O)c1ccccc1 ?
Reply | 0.533

Ask | Thanks! And Cc1ccc(S(=O)(=O)N2[C@@H](c3ccccc3)C(C(=O)O)=C[C@H]2C(C)(C)C)cc1 ?
Reply | 0.261

Ask | Thanks! And O=C1N(Cc2ccccc2)Cc2ccccc2C[C@@]12COC(c1ccc(OCCCO)cc1)=N2 ?
Reply | -0.0607

Ask | Thanks! And C=CCN1C(=O)[C@]2(O[C@H](CCO)[C@@H]([Si](C)(C)c3ccc(OC)cc3)[C@@H]2C)c2cc(N3C(=O)c4ccccc4Oc4ccccc43)ccc21 ?
Reply | 0.28

Ask | Thanks! And COc1ccc(C(=O)Nc2ccc(CN3C(=O)[C@@]4(O[C@@H](CC(=O)N(CCO)Cc5ccccc5)[C@H]([Si](C)(C)c5ccc(OC)cc5)[C@H]4C)c4ccccc43)cc2)cc1 ?
Reply | 0.444

Ask | Thanks! And [N-]=[N+]=NCc1ccccc1[C@H]1OC(c2ccc(OCCCO)cc2)=N[C@@]1(CCS(=O)(=O)c1ccccc1)C(=O)O ?
Reply | -0.266

Ask | Thanks! And COC(=O)c1c2oc(c1C(=O)OC)C(=O)N[C@H](Cc1ccccc1)Cn1cc(nn1)C1(CCCCC1)NC(=O)N[C@H](CO)CC2 ?
Reply | -0.161

Ask | Thanks! And C=CCOC(=O)[C@@H]1[C@H]2C(=O)O[C@H](c3ccccc3)[C@H](c3ccccc3)N2[C@H](c2ccc(OCCOC(=O)[C@H]3C[C@H]4C(=O)N[C@@H](CCCCN(C)C)C(=O)N4[C@H]3c3cccc(OCCO)c3)cc2)[C@@]12C(=O)Nc1ccccc12 ?
Reply | -1.19

Ask | Thanks! And C=C(COC)C(=O)CC[C@@H](OC(=O)c1ccccc1-c1ccccc1C(=O)O)c1ccccc1OCCO ?
Reply | 0.585

Ask | Thanks! And COC(=O)[C@@]1(Cc2ccccc2)[C@H]2c3cc(C(=O)N(C)C)n(CCF)c3C[C@H]2CN1C(=O)c1ccccc1 ?
Reply | -0.555

Ask | Thanks! And CC1CC/C=C\[C@H]2OC34C=CCN(CCN5CCOCC5)C(=O)[C@H]3N(C(CO)C(C)C)C(=O)[C@@H]4C2C(=O)O1 (stereo partly drawn) ?
Reply | -0.0839

Ask | Thanks! And COCCCNC(=O)[C@@]1(Cc2ccccc2I)c2ccccc2C(=O)N(Cc2ccccc2OC)[C@H]1c1ccc(CO)cc1 ?
Reply | -0.43

Ask | Thanks! And O=C1OCCC/C=C\[C@H]2OC34C=CCN(Cc5ccccc5)C(=O)[C@H]3N(CCO)C(=O)[C@@H]4C12 (stereo partly drawn) ?
Reply | 0.518

Ask | Thanks! And C=CC[C@H](O)c1ccc(O)c(F)c1 ?
Reply | -1.13

Ask | Thanks! And COCCOC(=O)N1C(=O)[C@@]2(c3cc(C#CC4=CCCCC4)ccc31)[C@H](C(=O)N1CCCCCCC1)[C@H]1C(=O)O[C@H](c3ccccc3)[C@H](c3ccccc3)N1[C@@H]2c1ccccc1OCCO ?
Reply | 0.327

Ask | Thanks! And O=C1c2ccccc2[C@@]2(Cc3ccccc3N(CC(F)(F)F)C2=O)[C@H](c2ccc(CO)cc2)N1Cc1ccccc1 ?
Reply | 0.2

Ask | Thanks! And Cc1cccc([C@H]2C[C@H]3C(Br)=C[C@@]2(CO)C(=O)[C@]32CO2)c1 ?
Reply | -0.427

Ask | Thanks! And C[C@]1(C(=O)NC2CC2)c2ccccc2C(=O)N(Cc2cc(F)cc(C(F)(F)F)c2)[C@H]1c1ccc(CO)cc1 ?
Reply | -1.59

Ask | Thanks! And C=C(COC)/C(=C/C[C@@H](OC(C)=O)c1cccc(OCCO)c1)c1cnc2ccccc2c1 ?
Reply | 0.754

Ask | Thanks! And CN(C)C(=O)[C@]1(CCS(=O)(=O)c2ccccc2)N=C(c2ccc(OCCCO)cc2)O[C@@H]1c1ccccc1CN=[N+]=[N-] ?
Reply | -0.0755

Ask | Thanks! And CC(C)[Si]1(C(C)C)OCc2cc(-c3ccc(-c4ccc(Cl)c(Cl)c4)o3)nc(-c3ccc(Oc4ccccc4)cc3)c21 ?
Reply | -1.44

Ask | Thanks! And C=CCNC(=O)[C@H]1[C@@H]2C(=O)O[C@@H](c3ccccc3)[C@@H](c3ccccc3)N2[C@@H](c2ccc(O)cc2)[C@]12C(=O)N(C(=O)OCCOC)c1ccc(C#Cc3ccc(OC)cc3)cc12 ?
Reply | 0.254

Ask | Thanks! And COc1ccc([Si](C)(C)[C@H]2[C@H](CC(=O)N3CCC[C@H]3CO)O[C@@]3(C(=O)N(Cc4cccc(N5CCCCC5=O)c4)c4ccccc43)[C@@H]2C)cc1 ?
Reply | 0.854

Ask | Thanks! And [N-]=[N+]=NCc1ccccc1[C@H]1OC(c2ccc(OCCCO)cc2)=N[C@@]1(Cc1ccccc1N=[N+]=[N-])C(=O)O ?
Reply | -0.0361

Ask | Thanks! And Cc1ccc(S[C@]2(C(=O)NCC(C)C)CC(=O)N(C(C)C)[C@@H]2c2ccc(CO)cc2I)cc1 ?
Reply | -1.62

Ask | Thanks! And C=C[C@@H](CO)NS(=O)(=O)c1ccc(Br)cc1 ?
Reply | -0.671

Ask | Thanks! And O=C1C[C@@](C(=O)NCC(F)(F)F)(c2ccc([N+](=O)[O-])cc2)[C@@H](c2ccc(CO)cc2I)N1CC12CC3CC(CC(C3)C1)C2 ?
Reply | 0.0604
